# Test system: Saccharomyces cerevisiae;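 also: PSI is a weighted mean of sequencing reads over stability bins, variants kept only with over 10 reads, mCherry proximal and sfGFP distal, peptide attached via GGGS linker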
# Test Method Notes: protein stability index of tFT-peptide fusion (C-terminal peptide) (PSI (0-1 scale)); higher = more stable (slower turnover)
# Condition Notes: genetic background: das1 deletion; temperature: 37 C
protein stability index overview
Reported Property: protein stability index

INSERT INTO assay_data (sequence_text, readout_value) VALUES
  ('VWLFCLSRLYLL', 0.494),
  ('RTSRPVRLFRIH', 0.78),
  ('FPTLVRKFINAI', 0.683),
  ('ILRKTAFRLRVL', 0.658),
  ('RWRDGVAWVVVC', 0.452),
  ('VLPCSLVPLRLH', 0.702),
  ('RFFFFFPCLLAP', 0.525),
  ('RSKKIFLTKKYS', 0.701),
  ('IKSIKQNKIKTI', 0.699),
  ('WWVVVRGGWCLC', 0.495),
  ('RVVILFVFLVYV', 0.376),
  ('VSWSVSALIYLK', 0.319),
  ('GFGRDHGNDTGP', 0.75),
  ('ACALRSLPPRPY', 0.746),
  ('CYFLFFLSYSLE', 0.455),
  ('GLLFWSGVVSWV', 0.507),
  ('ASAYCCMITRLN', 0.611),
  ('VFFCVLRVFFSA', 0.291),
  ('WFSVIMLCYILP', 0.34),
  ('FFFFFIHFLCYF', 0.383),
  ('RVCWLRAFGFLV', 0.724),
  ('MLVLFCLCYILG', 0.377),
  ('GESCGGSERRVG', 0.735),
  ('YPRLVGGCWFRL', 0.547),
  ('VFCMVLPFVLLT', 0.271),
  ('FRRSFPFPLFLR', 0.238),
  ('WFLLILFSAFAV', 0.501),
  ('CVLLRPGFLVLV', 0.278),
  ('KALFPGLLLCAF', 0.292),
  ('QCKHIVRKIKLH', 0.737),
  ('WHFMVFFCFCVD', 0.406),
  ('LFFASFLLIGPF', 0.499),
  ('LFPVASLCLART', 0.663),
  ('KAIILGNIKINF', 0.714),
  ('RALYLLALVGVS', 0.371);
